Values from patent US9186360B2

EXPERIMENTAL SYSTEM: human TRPV3 (Homo sapiens (Human))
Sequence (Q8NET8 whole entry): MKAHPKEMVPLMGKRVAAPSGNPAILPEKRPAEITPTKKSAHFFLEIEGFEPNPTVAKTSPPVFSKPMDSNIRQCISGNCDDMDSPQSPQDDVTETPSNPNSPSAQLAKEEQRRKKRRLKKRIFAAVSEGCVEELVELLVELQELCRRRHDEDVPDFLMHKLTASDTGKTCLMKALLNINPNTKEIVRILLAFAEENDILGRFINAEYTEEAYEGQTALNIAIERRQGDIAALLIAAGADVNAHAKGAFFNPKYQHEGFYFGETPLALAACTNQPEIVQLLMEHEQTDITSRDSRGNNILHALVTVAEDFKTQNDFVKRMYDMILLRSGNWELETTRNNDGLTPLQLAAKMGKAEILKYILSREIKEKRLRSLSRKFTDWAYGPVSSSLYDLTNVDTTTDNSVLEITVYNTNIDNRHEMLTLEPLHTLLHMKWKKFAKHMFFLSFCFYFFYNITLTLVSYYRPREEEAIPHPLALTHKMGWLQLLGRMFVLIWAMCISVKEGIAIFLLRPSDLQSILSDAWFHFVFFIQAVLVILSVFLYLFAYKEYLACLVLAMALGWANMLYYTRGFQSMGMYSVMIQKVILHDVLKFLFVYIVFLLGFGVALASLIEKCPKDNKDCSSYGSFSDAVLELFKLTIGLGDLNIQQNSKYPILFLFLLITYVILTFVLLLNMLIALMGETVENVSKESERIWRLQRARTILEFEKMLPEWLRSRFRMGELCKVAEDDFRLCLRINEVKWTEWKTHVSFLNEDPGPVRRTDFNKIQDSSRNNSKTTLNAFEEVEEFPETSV
TEST SUMMARY: Radiometric calcium selectivity assay, CHO cells expressing human TRPV3 (2-aminoethoxydiphenyl borate)
RUN PARAMETERS: read-out: IC50 values hTRPV3

COMPOUND: Cn1c(=O)c2c(cnn2CC(=O)Nc2nc(-c3cc(F)c(OCC(C)(C)C)c(Cl)c3)cs2)n(C)c1=O
IC50: > 10 µM
--
COMPOUND: Cn1c(=O)c2c(ccn2CC(=O)Nc2nc(-c3ccc(C(F)(F)F)c(F)c3)cs2)n(C)c1=O
IC50: > 10 µM
--
COMPOUND: Cn1c(=O)c2c(CC(=O)Nc3nc(-c4ccc(F)cc4F)cs3)cccc2n(C)c1=O
IC50: > 1 µM
--
COMPOUND: Cn1c(=O)c2c(CC(=O)Nc3nc(-c4ccc(C(F)(F)F)c(F)c4)cs3)ccnc2n(C)c1=O
IC50: > 1 µM
--
COMPOUND: Cn1c(=O)c2c(CC(=O)Nc3nc(-c4ccc(C5CCCCC5)cc4)cs3)cccc2n(C)c1=O
IC50: > 10 µM
--
COMPOUND: COCCCOc1cccc(C2NC(=S)NC3=C2C(=O)c2ccccc23)c1 (centres unmarked)
IC50: > 10 µM
--
COMPOUND: Cn1c(=O)c2c(CC(=O)Nc3nc(-c4ccc(C(F)(F)F)c(F)c4)cs3)nsc2n(C)c1=O
IC50: > 1 µM
--
COMPOUND: Cc1oc2c(c1CC(=O)Nc1nc(-c3ccc(F)c(C(F)(F)F)c3)cs1)c(=O)n(C)c(=O)n2C
IC50: > 1 µM

* * *

Overview of recorded IC50 for various compounds
EXPERIMENTAL SYSTEM: human TRPV3 (Homo sapiens (Human))
TEST SUMMARY: Radiometric calcium selectivity assay, CHO cells expressing human TRPV3 (2-aminoethoxydiphenyl borate)
RUN PARAMETERS: read-out: IC50 values hTRPV3
MEASURE NAME: IC50

STRUCTURE STRING: Cn1c(=O)c2c(CC(=O)Nc3nc(-c4ccc(C(F)(F)F)cc4F)cs3)cccc2n(C)c1=O
MEASURE NAME: IC50
RESULT: > 1 µM
//
STRUCTURE STRING: Cn1c(=O)c2c(CC(=O)Nc3nc(-c4cccc(C(F)(F)F)c4)cs3)cccc2n(C)c1=O
MEASURE NAME: IC50
RESULT: 2.1 µM
//
STRUCTURE STRING: Cn1c(=O)c2c(CC(=O)Nc3nc(-c4cc(F)cc(C(F)(F)F)c4)cs3)coc2n(C)c1=O
MEASURE NAME: IC50
RESULT: > 1 µM
//
STRUCTURE STRING: Cn1c(=O)c2c(CC(=O)Nc3nc(-c4ccc(F)c(C(F)(F)F)c4F)cs3)ccnc2n(C)c1=O
MEASURE NAME: IC50
RESULT: > 10 µM
//
STRUCTURE STRING: Cc1oc2c(c1CC(=O)Nc1nc(-c3ccc(OC(F)(F)F)c(F)c3)cs1)c(=O)n(C)c(=O)n2C
MEASURE NAME: IC50
RESULT: > 1 µM
//
STRUCTURE STRING: Cn1c(=O)c2c(cnn2CC(=O)Nc2nc(-c3cc(F)c(OCC4CCC4)c(F)c3)cs2)n(C)c1=O
MEASURE NAME: IC50
RESULT: > 10 µM
//
STRUCTURE STRING: Cn1c(=O)c2c(CC(=O)Nc3nc(-c4cc(F)cc(C(F)(F)F)c4)cs3)nsc2n(C)c1=O
MEASURE NAME: IC50
RESULT: > 1 µM
//
STRUCTURE STRING: Cc1ccc(-c2csc(NC(=O)Cc3cccc4c3c(=O)n(C)c(=O)n4C)n2)cc1
MEASURE NAME: IC50
RESULT: > 10 µM
//
STRUCTURE STRING: Cc1oc2c(c1CC(=O)Nc1nc(-c3ccc(C(F)(F)F)cc3F)cs1)c(=O)n(C)c(=O)n2C
MEASURE NAME: IC50
RESULT: > 1 µM
//
STRUCTURE STRING: Cn1c(=O)c2c(CC(=O)Nc3nc(-c4ccc(F)c(C(F)(F)F)c4)cs3)cccc2n(C)c1=O
MEASURE NAME: IC50
RESULT: > 1 µM
//
STRUCTURE STRING: Cn1c(=O)c2c(CC(=O)Nc3nc(-c4ccc(Cl)c(Cl)c4)cs3)cccc2n(C)c1=O
MEASURE NAME: IC50
RESULT: > 10 µM
//
STRUCTURE STRING: CCC(=N\O)/C(C)=C/c1ccc(F)cc1
MEASURE NAME: IC50
RESULT: > 10 µM
//
STRUCTURE STRING: Cn1c(=O)c2c(CC(=O)Nc3nc(-c4ccc(Br)cc4)cs3)cccc2n(C)c1=O
MEASURE NAME: IC50
RESULT: > 10 µM
//
STRUCTURE STRING: Cn1c(=O)c2c(CC(=O)Nc3nc(-c4ccc(F)c(C(F)(F)F)c4)cs3)coc2n(C)c1=O
MEASURE NAME: IC50
RESULT: > 1 µM
//
STRUCTURE STRING: Cn1c(=O)c2c(CC(=O)Nc3nc(-c4cccc(C(F)(F)F)c4F)cs3)nsc2n(C)c1=O
MEASURE NAME: IC50
RESULT: > 1 µM
//
STRUCTURE STRING: Cc1oc2c(c1CC(=O)Nc1nc(-c3cc(Cl)c(OCC(C)C)c(Cl)c3)cs1)c(=O)n(C)c(=O)n2C
MEASURE NAME: IC50
RESULT: > 10 µM
//
STRUCTURE STRING: Cn1c(=O)c2c(CC(=O)Nc3nc(-c4ccc(F)c(Cl)c4)cs3)cccc2n(C)c1=O
MEASURE NAME: IC50
RESULT: > 1 µM
